# protocol.details: protein stability index of a GFP-peptide fusion (GPS, HEK-293T) (PSI 1-6); higher = more stable;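 note: 24-mer peptide tiles fused after GFP, lentivirally expressed, FACS-sorted into six equal bins by GFP/DsRed ratio, decoded by Illumina sequencing, PSI is the read-weighted mean bin number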
# experimental.setup: treatment: DMSO; c terminus: a fixed tail appended
# label = 1.0 if protein stability index >= 3 else 0.0

{"input.sequence": "KINAWDLYYYMTQTEELKYSIDQE [NLN]", "class.label": 0.0}
{"input.sequence": "FAFSNGYLASLCMCFGPKKVKPAE [SLC29A1]", "class.label": 0.0}
{"input.sequence": "PICVQIPWDKNPEALAKWAEGRTG [CRY1]", "class.label": 1.0}
{"input.sequence": "QYLMATFVHVYITSFIRGPNPSKV [CDS1]", "class.label": 1.0}
{"input.sequence": "GCQVSPEGYAHLTHLLMGLASGRI [HDAC6]", "class.label": 0.0}
{"input.sequence": "IDEHHFVAVALRKPDGSRHQDVPS [AASDHPPT]", "class.label": 1.0}
{"input.sequence": "YLTVVFEHDAWFIFFMAAFAFSNG [SLC29A1]", "class.label": 1.0}
{"input.sequence": "MEPGGARLRLQRTGGLGGERERQP [SOAT2]", "class.label": 1.0}
{"input.sequence": "MATITCTRFTEEYQLFEELGKGAF [CAMK2A]", "class.label": 0.0}
